Every entry's value here was drawn from paper PMC6692406.

Molecular target: CcDHAD (dihydroxyacid dehydratase) (Caulobacter vibrioides)
Construct: codon-optimised gene in pET28a, recombinant in E. coli BL21(DE3), purified on His GraviTrap; MnCl2 added before freezing
Sequence (Q9A9Z2 whole entry): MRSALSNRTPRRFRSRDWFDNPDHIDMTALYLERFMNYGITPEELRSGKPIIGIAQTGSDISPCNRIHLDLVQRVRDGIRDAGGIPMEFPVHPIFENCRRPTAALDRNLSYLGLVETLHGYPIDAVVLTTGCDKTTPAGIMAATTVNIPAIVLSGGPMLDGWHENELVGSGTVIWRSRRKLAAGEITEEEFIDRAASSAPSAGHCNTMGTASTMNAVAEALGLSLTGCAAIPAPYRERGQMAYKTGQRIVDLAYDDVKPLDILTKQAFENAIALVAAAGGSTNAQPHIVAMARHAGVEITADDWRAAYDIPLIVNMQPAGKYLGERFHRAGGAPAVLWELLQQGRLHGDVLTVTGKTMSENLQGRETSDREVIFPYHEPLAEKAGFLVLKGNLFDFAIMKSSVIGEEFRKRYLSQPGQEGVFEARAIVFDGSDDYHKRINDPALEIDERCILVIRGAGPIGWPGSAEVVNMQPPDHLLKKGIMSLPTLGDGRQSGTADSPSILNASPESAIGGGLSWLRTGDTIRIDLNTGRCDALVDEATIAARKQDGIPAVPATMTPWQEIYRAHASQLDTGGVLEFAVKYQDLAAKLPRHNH
Assay: inhibition of D-gluconate dehydration (experimental analysis in Figure S2)
observable: Ki

State the recorded Ki for this entry: O=C(O)[C@H](O)CO [D-glycerate]
~500 µM
